Quick list: %Inh per entry.
Test system: TAOK1
Conditions: concentration: 1 μM, replicates: in singlicate; n = 1;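 further: KINOMEscan kinase panel screen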
Entry rule: numbers only, all in %.

Consider the worked cases shown below.
molecule=CCS(=O)(=O)c1ccc(OC)c(Nc2ncc(-c3ccc(F)cc3)o2)c1.Cl measured_parameter=%Inh experimental_result=0
molecule=Nc1nccc2scc(-c3ccc4c(c3)CCN4C(=O)Cc3ccccc3)c12 measured_parameter=%Inh experimental_result=2
molecule=Cl.NS(=O)(=O)c1cccc(Nc2cc(-c3ccc(F)cc3)n[nH]2)c1 measured_parameter=%Inh experimental_result=0
molecule=COc1cc2nccc(Nc3cccc(Oc4ccccc4)c3)c2cc1OC.Cl measured_parameter=%Inh experimental_result=0
molecule=COc1cc2ncn(-c3cc(OCCCc4ccccc4)c(C(N)=O)s3)c2cc1OC measured_parameter=%Inh experimental_result=0
molecule=O=C(Nc1n[nH]c2cc(-c3ccccc3F)ccc12)C1CC1 measured_parameter=%Inh experimental_result=52
molecule=CN(C)c1cc(-c2ccc3c(N)n[nH]c3c2)nc(N)n1 measured_parameter=%Inh experimental_result=0
molecule=Nc1ncnc2c1ncn2-c1cccc2ccccc12 measured_parameter=%Inh experimental_result=0

// `COc1ccc(-c2cc3c(C)nc(N)nc3n([C@H]3CC[C@H](O)CC3)c2=O)cn1` : %Inh value = 0

Given item `Nc1nc(-c2ccccc2F)c(-c2ccnc3ccccc23)s1` , the value recorded as its %Inh is 0

What the record says about `COc1cc2ncn(-c3cc(OCc4ccncc4Br)c(C(N)=O)s3)c2cc1OC` : %Inh is 4

Per the records, this molecule ( `O=C1NC(=O)C(c2ccccc2)=C1Nc1cccc(O)c1` ) has %Inh equal to 30

Short answer for `CCC(=O)c1c(-c2ccccc2)c2cc(Cl)ccc2c(=O)n1Cc1cc(S(C)(=O)=O)n(CC(F)F)n1` : %Inh was 8

The recorded %Inh for Cc1nnc(-c2ccc3ncn(-c4ccc(S(C)=O)cc4)c3c2)o1 (stereo not shown) is 100

Looking up `O=C(Nc1n[nH]c2nc(-c3ccccc3)c(Cl)cc12)C1CC1` , I found its %Inh recorded as 0

Lab note: `O=c1cc(N2CCOCC2)nc2n(Cc3ccc(F)c(Cl)c3)ccn12` gave %Inh of 0

Notebook: `FC(F)(F)c1ccc(-c2ncn(CCCN3CCOCC3)c2-c2ccncc2)cc1` , %Inh read as 0

get_value(item= `CCn1c(-c2ccoc2)nc2cnccc21` , readout=%Inh) returns 0

In plain terms, `Nc1n[nH]c2nnc(-c3ccccc3)c(-c3ccccc3)c12` has a documented %Inh of 0

---

System: PFTK1
Construct: gene CDK14
Conditions: concentration: 1 μM, replicates: in singlicate; n = 1
// reported %Inh for each item listed
Your answer should be a plain number; it is taken to be in %.

compound="COc1cc(Nc2nccc(N3CCC(NC(=O)C4COc5ccccc5O4)C3)n2)cc(OC)c1OC (centres unmarked)" experimental_result=26
compound=COc1cccc(-n2cnc3c(N)ncnc32)c1 experimental_result=0
compound=O=C(Nc1n[nH]c2nc(-c3ccccc3)c(Cl)cc12)C1CC1 experimental_result=6

%Inh reading for `Cc1cccc(-c2cc(-c3c[nH]nc3-c3ccccn3)ccn2)c1` : 11

GET /value?item= `O=C(Nc1n[nH]c2cc(-c3ccccc3F)ccc12)C1CC1` &field=%Inh returns 0

---

%Inh for assorted molecules
System: IKK-beta
Construct: gene IKBKB
Settings: concentration: 1 μM, replicates: in singlicate; n = 1
Numeric answer only, unit % assumed.

molecule="COc1cccc(-n2cnc3c(N)ncnc32)c1 [SKF-97416]" measured_parameter=%Inh measurement_units=% experimental_result=32
molecule="Nc1ncnc2c1ncn2-c1cccc(F)c1 [SKF-97560]" measured_parameter=%Inh measurement_units=% experimental_result=19
molecule=COc1ccc(-c2cc3c(C)nc(N)nc3n([C@H]3CC[C@H](OCCO)CC3)c2=O)cn1 measured_parameter=%Inh measurement_units=% experimental_result=0
molecule="CCS(=O)c1ccc(-c2coc3ccc(-c4nnc(C)o4)cc23)cc1 (stereo not drawn)" measured_parameter=%Inh measurement_units=% experimental_result=6
molecule=COc1ccc(-c2cc3c(C)nc(N)nc3n([C@H]3CC[C@H](O)CC3)c2=O)cn1 measured_parameter=%Inh measurement_units=% experimental_result=0
molecule="CCCC(=O)Nc1n[nH]c2ncc(-c3cccc4ccccc34)cc12 [SB-642057]" measured_parameter=%Inh measurement_units=% experimental_result=30
molecule="O=C(Nc1n[nH]c2cc(-c3ccccc3F)ccc12)C1CC1 [SB-733371]" measured_parameter=%Inh measurement_units=% experimental_result=0
molecule="COc1cc(Nc2nccc(N3CCC(NC(=O)C4COc5ccccc5O4)C3)n2)cc(OC)c1OC (stereo not drawn) [GSK1379761]" measured_parameter=%Inh measurement_units=% experimental_result=0
molecule=Fc1cccc(CSc2nnc(-c3ccc4c(c3)CCO4)o2)c1 measured_parameter=%Inh measurement_units=% experimental_result=10
molecule="COc1cc(Nc2ccnc3ccc(C(F)(F)F)cc23)cc(OC)c1OC [GW577382]" measured_parameter=%Inh measurement_units=% experimental_result=3

Param item: `CC(C)(C)c1ccc(C(=O)Nc2cn3cc(-c4ccccc4)ccc3n2)cc1` ; param system: IKK-beta; output %Inh: 6

Lab entry: IKK-beta assay, molecule `CCC(=O)c1c(-c2ccccc2)c2cc(Cl)ccc2c(=O)n1Cc1cc(S(C)(=O)=O)n(CC(F)F)n1` , %Inh = 0

Item Cc1nnc(-c2ccc(C)c(-c3ccc(C(=O)O)cc3)c2)o1 [GW608005] ; assay system IKK-beta; %Inh reported as 25

The reported %Inh value, IKK-beta, for Nc1ncnc2c1ncn2-c1ccc(Cl)cc1 [AH2635] reads 0

Nc1nc(N)c2nc(-c3ccccc3)[nH]c2n1 [SKF-12778] on IKK-beta gives %Inh = 17

Entry Nc1nccc2scc(-c3ccc4c(c3)CCN4C(=O)Cc3ccccc3)c12 [GSK2576924] , IKK-beta data, %Inh value: 0

Record Cl.NS(=O)(=O)c1cccc(Nc2cc(-c3ccc(F)cc3)n[nH]2)c1 [GW824645] has IKK-beta %Inh equal to 9

Note to self: %Inh of COc1cc2nccc(Nc3ccc(OCc4ccc(NC(C)=O)cc4)cc3)c2cc1OC.Cl [GW440135] with IKK-beta was 0

Kindly note: IKK-beta, COc1ccc(Nc2nccc(N3CCC(NS(=O)(=O)c4ccc(NC(C)=O)cc4)C3)n2)cc1 (stereo not drawn) [GSK1379729] , %Inh value reported: 6

Measured %Inh for this entry FC(F)(F)c1ccc(-c2ncn(CCCN3CCOCC3)c2-c2ccncc2)cc1 [SB-217780] on IKK-beta: 0

// assay IKK-beta, entry CN(C)c1cc(-c2ccc3c(N)n[nH]c3c2)nc(N)n1 [GSK2219329] , %Inh value = 0

Entry `COC(=O)c1c(-c2ccccc2)c2cc(C)ccc2c(=O)n1Cc1ccccc1` , tested on IKK-beta, has a reported %Inh of 0

The reported IKK-beta %Inh of Cc1cccc(-c2nc(Nc3ccc4c(cnn4C)c3)c3ccccc3n2)n1 [GW876731] is 13

Form field, %Inh with IKK-beta, item O=C(Nc1n[nH]c2nc(-c3ccccc3)c(Br)cc12)C1CC1 [SB-708998] : 5

---

Tested on: TIE1
Conditions: concentration: 1 μM, replicates: in singlicate; n = 1
Measured %Inh, listed per entry.
# output: bare number, implied unit %

# annotated cases, reported %Inh shown
compound="COc1cccc(-n2cnc3c(N)ncnc32)c1 [SKF-97416]" measured_parameter=%Inh experimental_result=19
compound=COC(=O)c1c(-c2ccccc2)c2cc(C)ccc2c(=O)n1Cc1ccccc1 measured_parameter=%Inh experimental_result=0
compound="O=C(Nc1n[nH]c2nc(-c3ccccc3)c(Cl)cc12)C1CC1 [SB-734909]" measured_parameter=%Inh experimental_result=0
compound="O=C(NCCNc1ccnc(Nc2ccc(F)cc2)n1)Nc1ccc2c(c1)OCO2 [GSK1379882]" measured_parameter=%Inh experimental_result=0
compound="COc1cc2ncn(-c3cc(OCc4ccncc4Br)c(C(N)=O)s3)c2cc1OC [GW854278]" measured_parameter=%Inh experimental_result=31

For reference, reported %Inh for Nc1ncnc2c1ncn2-c1cccc2ccccc12 [SKF-97184] stands at 0

Recorded result, Cl.NS(=O)(=O)c1cccc(Nc2cc(-c3ccc(F)cc3)n[nH]2)c1 [GW824645] , %Inh: 0

Please fill in: %Inh reported for COc1ccc(CNC(=O)NC2CCN(c3ccnc(Nc4ccc(F)cc4)n3)C2)cc1 (stereo not shown) [GSK1379706] = 12

---

Tested on: WEE2
Conditions: concentration: 1 μM, replicates: in singlicate; n = 1
Measured parameter: %Inh (%)
Write the value in % as a bare number.

Example results:
smiles_code=COc1cc2nccc(Nc3cccc(Oc4ccccc4)c3)c2cc1OC.Cl experimental_result=14
smiles_code=Cc1ccc(Oc2ccc(Nc3ncnc4cc[nH]c34)cc2C)cn1 experimental_result=0
smiles_code=COC(=O)c1c(-c2ccccc2)c2cc(Br)ccc2c(=O)n1Cc1ccc(S(C)(=O)=O)cc1 experimental_result=16
smiles_code=COc1cc2ncn(-c3cc(OCc4ccc(S(C)(=O)=O)cc4)c(C(N)=O)s3)c2cc1OC experimental_result=0

Shift focus to the following entry.
The recorded %Inh for entry `Cc1ccc(-c2ccc3c(ccc4sc5c(c43)NC[C@@H](C)N=C5N(C)C)n2)cn1` equals 0

Ref: paper PMC5540273
